target: T1, Human IL-13 (human, UniProt P35225 35-146); experiment: biochemical receptor-ligand inhibition assay, purified scFv titrated (second panel); the IL-13 receptor used is not named in Example 1
T1 construct: also called human interleukin 13 (Peprotech); the antigen
T1 sequence (P35225 35-146 limits assumed): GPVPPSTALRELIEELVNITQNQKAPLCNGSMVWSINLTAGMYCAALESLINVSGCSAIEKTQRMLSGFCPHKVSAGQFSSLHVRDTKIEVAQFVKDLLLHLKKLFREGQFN
PARAMETER: IC50 (nM)
Answers are plain numbers, in nM.

# count of solved cases: 2
{"columns": ["BINDER", "IC50 / nM"],
 "data": [
  ["BAK1183H4 antibody (antibody, V domains shown, also called 1183H04; BAK1183H04) VH: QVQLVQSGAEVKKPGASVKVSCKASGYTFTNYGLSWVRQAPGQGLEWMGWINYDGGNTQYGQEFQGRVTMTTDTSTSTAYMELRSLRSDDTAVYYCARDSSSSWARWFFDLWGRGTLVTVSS VL: SYVLTQPPSVSVAPGKTARIPCGGNIIGSKLVHWYQQKPGQAPVLVIYDDGDRPSGIPERFSGSNSGNTATLTISRVEAGDEADYYCQVWDTGSDPVVFGGGTKLTVL", 46],
  ["13NG0088 (scFv, V domains shown, purified scFv from the mini-recombination library; member of group m20; also called ZZ0SEC-C01; copies: 1 + 1) VH: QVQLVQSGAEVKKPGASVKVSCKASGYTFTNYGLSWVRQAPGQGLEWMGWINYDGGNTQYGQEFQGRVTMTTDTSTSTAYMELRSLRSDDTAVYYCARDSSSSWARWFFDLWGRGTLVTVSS VL: SYVLTQPPSVSVAPGKTARIPCGGNLIGARLVHWYQQKPGQAPVLVIMDDIDRPSGIPERFSGSNSGNTATLTISRVEAGDEADYYCQVWDTGSRPVVFGGGTKLTVL", 6.53]
]}

Then this binder:
Identify measured IC50 associated with 13NG0086 (scFv, V domains shown, purified scFv from the mini-recombination library; member of group m20; also called ZZ0SEB-F04; copies: 1 + 1) VH: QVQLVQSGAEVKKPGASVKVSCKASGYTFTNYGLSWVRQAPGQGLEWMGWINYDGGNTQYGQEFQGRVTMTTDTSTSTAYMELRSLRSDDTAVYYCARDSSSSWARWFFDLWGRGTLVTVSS VL: SYVLTQPPSVSVAPGKTARIPCGGNMVGARLVHWYQQKPGQAPVLIVYDDMDRPSGIPERFSGSNSGNTATLTISRVEAGDEADYYCQVWDTGSRPVVFGGGTKLTVL 14.2
